Target: HBsAg clinical mutation D144A (Hepatitis B virus)
Assay: sandwich ELISA, captured mutant HBsAg from culture supernatant;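 further: Anti-HBsAg antibodies tested for binding to mutant HBsAg secreted by stably transfected cell lines, supernatant incubated 1 h on antibody-coated plates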
Measured IC50, listed per entry.

Binder	IC50 [nM]
NOV3833 (antibody, human IgG1, lambda, V domains shown, Full human IgG1 (lambda) expressed in CHO cells) VH: EMQVLESGGGLVQPGGSLRLSCAASGFTFHNYAMSWVRQVPGKGLEWVSSISGSGGSTYYADSVKGQFTISRDNSKNTLYLQMNSLRAEDTAVYYCAKSSILSGGHARVYGIDVWGQGTTVTVSS VL: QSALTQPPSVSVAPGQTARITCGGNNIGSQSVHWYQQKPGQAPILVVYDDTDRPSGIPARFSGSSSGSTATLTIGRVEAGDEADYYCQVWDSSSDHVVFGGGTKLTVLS	2.8
NOV3357 (antibody, human IgG1, kappa, V domains shown, Full human IgG1 (kappa) expressed in CHO cells) VH: EVQLLESGGGLVQPGGSLRLSCAASGFTFSPHAMSWVRQAPGKGLEWVSAISDSGGSTHYADSVKGRFTISRDNSKNTLYLQMNSLRAEDTAVYYCARDDDGWSGYDYWFDYWGQGTLVTVSS VL: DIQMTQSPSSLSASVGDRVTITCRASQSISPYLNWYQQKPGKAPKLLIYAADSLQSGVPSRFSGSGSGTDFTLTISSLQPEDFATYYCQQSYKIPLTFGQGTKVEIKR	2.1
NOV3837 (antibody, human IgG1, kappa, V domains shown, Full human IgG1 (kappa) expressed in CHO cells) VH: QVQLQESGGRLVRPGGSLRLSCAASGFIFTDYYMTWIRQAPGKGPEWIAFITSGGETTYYADSVKGRFTISRDNAKKSLFLQMYSLRADDTAVYYCVRAHFDGYQYDTRGDFTYYFDNWGLGTLVSVSS VL: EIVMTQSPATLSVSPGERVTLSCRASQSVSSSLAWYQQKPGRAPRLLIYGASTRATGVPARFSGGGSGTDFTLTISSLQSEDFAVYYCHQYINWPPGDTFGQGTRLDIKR	0.27
NOV3838 (antibody, human IgG1, kappa, V domains shown, Full human IgG1 (kappa) expressed in CHO cells) VH: QVQLQESGGRLVRPGGSLRLSCAASGFIFTDYYMTWIRQAPGKGPEWIAFITSGGETTYYADSVKGRFTISRDNAKKSLFLQMYSLRADDTAVYYCVRAHFDLYQYDTRGDFTYYFDNWGLGTLVSVSS VL: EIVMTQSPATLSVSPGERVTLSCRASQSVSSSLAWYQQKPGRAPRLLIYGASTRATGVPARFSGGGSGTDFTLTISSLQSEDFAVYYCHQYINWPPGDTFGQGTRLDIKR	6.1
NOV3841 (antibody, human IgG1, lambda, V domains shown, Full human IgG1 (lambda) expressed in CHO cells) VH: EVQLLESGGGLVQPGGSRRLSCAASGFTFSYYGMNWVRQAPGKGLEWVSGITQSGSITYYADTVKGRFSISRDNSKNTLFLQMNSLRAEDTAVYYCAKVGVRSSSGMWDLDYWGQGTLVTVSS VL: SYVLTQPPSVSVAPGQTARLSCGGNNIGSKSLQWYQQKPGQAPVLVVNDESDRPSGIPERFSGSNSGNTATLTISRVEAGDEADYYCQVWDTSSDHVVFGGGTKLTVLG	7.8
